Test system: SK-MEL-2 melanoma
assayNotes: NCI tumour cell line growth inhibition, 48 h
Kindly supply the reported GI50 values for the records listed here.

compound=O=C(Nc1cccc(Cl)c1)Nc1cc(C(F)(F)F)ccc1Cl studytarget="SK-MEL-2 melanoma" result="2.24 µM"

For each of the compounds below, state GI50.
1. C#Cc1cccc(NC(=O)C2CCCCN2C(=O)CCl)c1 (stereo not given)
2. Cc1ccc2c(c1)n([O-])c(C(F)(F)F)c(C(=O)c1ccco1)[n+]2=O
3. Cc1ccccc1N=C(c1ccccc1)C1C(=O)c2ccccc2C1=O
4. COC1C[C@H](O[C@@H]2C[C@H](O[C@@H]3C[C@H](O[C@@H]4C(=O)c5c(cc6cc(O[C@H]7C[C@@H](O[C@H]8C[C@@H](O)[C@H](O)C(C)O8)[C@H](O)C(C)O7)c(C)c(O)c6c5O)C[C@H]4C(OC)C(=O)[C@@H](O)[C@@H](C)O)OC(C)[C@H]3O)OC(C)[C@@H]2O)OC(C)[C@@H]1O (stereo not given in full)
5. COc1ccc(N2CCN(c3nc(-c4ccccn4)nc4sc5c(c34)CCCCCC5)CC2)cc1
6. CS(=O)(=O)Nc1cc(-c2ccc3ncnc(Nc4ccc(OCc5ccccn5)c(Cl)c4)c3c2)cnc1Cl

Output:
1. 23.9 µM
2. 4.4 µM
3. 3.32 µM
4. 0.068 µM
5. 18.3 µM
6. 0.184 µM

Please state, for each entry, its recorded GI50.
1. COc1cc2cc(C(=O)Nc3ccccc3)c(N)nc2cc1OC
2. Cn1cc(-c2[nH]c3cc(NC(=O)[C@H](N)C4CCCCC4)cc4c3c2C=NNC4=O)cn1
3. O=C(O)[C@@H](Cc1ccccc1)NS(=O)(=O)c1ccc(-c2ccccc2)cc1

Output:
1. 69.1 µM
2. 0.262 µM
3. > 100 µM

###

Tested on: NCI-H522 lung
assayNotes: NCI tumour cell line growth inhibition, 48 h; in the data active = GI50 below about 0.43 µM; inactive = the rest
Tick one outcome: True (active), False (inactive)

Input: I'd appreciate the recorded outcome for O=C(/C=C/c1cc2ccccc2[nH]c1=O)c1ccc(O)cc1 from this test.
Output: False

Input: Now this one: Nc1cc2c3ccccc3ccc2c2ccccc12
Output: False

Input: Would you mind doing O=C(Nc1c(Cl)cccc1Cl)Oc1cccc2cccnc12 as well?
Output: False

Input: Queued: Cc1cc(S(=O)(=O)Nc2nc3ccccc3s2)c(SCc2ccccc2)cc1Cl
Output: False

Input: Next: Clc1ccc(Nc2nnc(COc3ccccc3)c3ccccc23)cc1
Output: True

Input: Queued: COc1cc(/C=C/[N+](=O)[O-])cc(OC)c1
Output: False

Input: Entry to check: c1ccc2c(c1)CCCc1nnc3nc4ccccc4n3c1-2
Output: False

###

Tested on: PC-3 prostate
assayNotes: NCI tumour cell line growth inhibition, 48 h
Would you mind labelling by TGI? At or over 60 µM is MET, under is NOT MET.

Answered cases to consult:
molecule="CC1(/C=C/c2ccc(-c3ccccc3)cc2)CCn2cnc3ncnc(c32)N1O (stereo unspecified)" studytarget="PC-3 prostate" classlabel="NOT MET"
molecule="CN(C)CCNC(=O)c1cccc2c(NC(CCCN=C(N)N)C(=O)O)c3ccccc3nc12 (stereo unspecified)" studytarget="PC-3 prostate" classlabel=MET
molecule="CCOC(=O)C(NS(=O)(=O)c1ccccc1)(C(F)(F)F)P(=O)(OCC(C)C)OCC(C)C (stereo unspecified)" studytarget="PC-3 prostate" classlabel=MET
molecule=Nc1nc(Cl)cc(OCC2(CO)CCCCC2)n1 studytarget="PC-3 prostate" classlabel=MET

Input: Say whether Nc1ncnc2c1ncn2Cc1ccc(CCl)cc1 shows TGI of 60 µM or more.
Output: MET

Input: Again, but for O=C(/C=C/c1cc2ccccc2[nH]c1=O)c1ccc(O)cc1
Output: NOT MET

Input: And what about the molecule Cc1cc(C(=O)NOCCO)c(Nc2ccc(I)cc2F)n(C)c1=O ?
Output: MET

Input: Thanks! And COc1cc2cc(C(=O)Nc3ccccc3)c(N)nc2cc1OC ?
Output: MET

Input: Follow-up item: CCOC(=O)C1=C(C)NC(c2ccccc2)=C(C(=O)OCc2ccccc2)C1C#Cc1ccccc1 (stereo unspecified)
Output: MET

Input: Note, next up: CN(CCCNC(=O)c1[nH]nc2c1ccc1ccccc12)CCCNC(=O)c1[nH]nc2c1ccc1ccccc12
Output: NOT MET

Input: Thanks! And COc1cc2c(cc1OC)C/C(=N\O)c1cc(OC)c(OC)cc1/C=C\2 ?
Output: MET
